Target: Inosine-5'-monophosphate dehydrogenase (Cryptosporidium parvum, UniProt Q8T6T2)
Sequence (Q8T6T2 whole entry): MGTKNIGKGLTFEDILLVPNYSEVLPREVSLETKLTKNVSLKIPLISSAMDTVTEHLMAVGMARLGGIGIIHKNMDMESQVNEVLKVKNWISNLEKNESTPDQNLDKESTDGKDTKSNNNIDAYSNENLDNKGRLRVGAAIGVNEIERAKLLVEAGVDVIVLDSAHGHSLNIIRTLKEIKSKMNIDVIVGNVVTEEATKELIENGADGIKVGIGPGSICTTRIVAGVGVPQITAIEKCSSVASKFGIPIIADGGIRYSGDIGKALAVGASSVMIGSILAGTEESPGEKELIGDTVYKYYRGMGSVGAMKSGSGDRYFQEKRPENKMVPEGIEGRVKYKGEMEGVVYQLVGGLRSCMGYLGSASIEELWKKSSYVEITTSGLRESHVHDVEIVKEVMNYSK
Assay: Inhibition of Cryptosporidium parvum recombinant IMPDH expressed in Escherichia coli assessed as production of NADH incubated for 5 mins by fluorescence based assay
pIC50: −log10 of the molar value.
Readout Name: pIC50

I have this molecule here, C=C(C)c1cccc(C(C)(C)NC(=O)Nc2cccc3ccccc23)c1 , and I need its recorded pIC50.
< 5.30

Now try CC(=O)c1cccc(C(C)(C)NC(=O)Oc2ccc(Cl)cc2)c1 .
< 5.30

Lookup CC(=O)c1cccc(C(C)(C)NC(=O)Cc2ccc(Cl)cc2)c1
< 5.30

----------
Record form. Attribute: log10 IC50. Fill in for each entry.
Molecular target: Inosine-5'-monophosphate dehydrogenase (Cryptosporidium parvum, UniProt Q8T6T2)
Sequence (Q8T6T2 whole entry): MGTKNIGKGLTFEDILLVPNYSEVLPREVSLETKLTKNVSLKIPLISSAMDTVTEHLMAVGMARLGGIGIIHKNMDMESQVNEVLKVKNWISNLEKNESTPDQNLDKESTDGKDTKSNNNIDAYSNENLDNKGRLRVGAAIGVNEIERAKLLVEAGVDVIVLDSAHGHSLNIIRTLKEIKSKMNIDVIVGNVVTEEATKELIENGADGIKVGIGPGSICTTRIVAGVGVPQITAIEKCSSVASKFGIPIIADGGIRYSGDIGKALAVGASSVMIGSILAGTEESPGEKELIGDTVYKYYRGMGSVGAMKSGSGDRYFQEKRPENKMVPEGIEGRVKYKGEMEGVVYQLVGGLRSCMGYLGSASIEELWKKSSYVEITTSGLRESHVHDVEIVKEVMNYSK
Assay: Inhibition of Cryptosporidium parvum recombinant IMPDH expressed in Escherichia coli assessed as production of NADH incubated for 5 mins by fluorescence based assay
Plainly stated, the numbers are log10 of IC50 given in nM.

Request: log10 IC50, test system Inosine-5'-monophosphate dehydrogenase (Cryptosporidium parvum, UniProt Q8T6T2), entry NC(=O)c1cc(NC(=O)NC2(c3cccc(-c4ccccc4)c3)CC2)ccc1Cl
1.60

Next compound: CC(O)c1cccc(C(C)(C)NC(=O)Nc2ccc(Cl)cc2)c1 (stereo not drawn)
1.90

Can you check CC(=O)c1cccc(C(C)(C)NC(=O)Nc2ccc(Cl)cc2)c1 next?
1.59

Queued: C=C(C)c1cccc(C(C)(C)NC(=O)Nc2ccc(Cl)c(C(N)=O)c2)c1
0.36

# iterate: CC(=O)c1cccc(CNC(=O)Nc2ccc(Cl)cc2)c1
3.70

Ok, now CC(=O)c1cccc(C(C)(C)NC(=O)Nc2ccc(Cl)c(C(N)=O)c2)c1
1.73
